experiment: Therapeutic index, ratio of IC50 for human RWPE1 cells to IC50 for human LNCAP cells; format: cell-based; conditions: RWPE1 cells versus LNCAP cells, read-out: Ratio IC50
resultType: selectivity ratio
One number for each entry.

{"sampleSmiles": "COc1ccc(NC(=S)N[C@@H]2c3cc4c(cc3[C@@H](c3cc(OC)c(OC)c(OC)c3)[C@H]3C(=O)OC[C@@H]32)OCO4)c([N+](=O)[O-])c1", "resultNumber": 3.1}

For each of the compounds below, state selectivity ratio.
1. COc1cc([C@@H]2c3cc4c(cc3[C@@H](NC(=S)Nc3c(C)cc(C)cc3C)[C@H]3COC(=O)[C@H]23)OCO4)cc(OC)c1OC
2. COc1cc([C@@H]2c3cc4c(cc3[C@@H](NC(=S)Nc3ccc(C(F)(F)F)cc3)[C@H]3COC(=O)[C@H]23)OCO4)cc(OC)c1OC
3. COc1cc([C@@H]2c3cc4c(cc3[C@@H](NC(=S)Nc3ccccc3C(F)(F)F)[C@H]3COC(=O)[C@H]23)OCO4)cc(OC)c1OC
4. CCOC(=O)c1ccc(NC(=S)N[C@@H]2c3cc4c(cc3[C@@H](c3cc(OC)c(OC)c(OC)c3)[C@H]3C(=O)OC[C@@H]32)OCO4)cc1
5. COc1ccc(NC(=S)N[C@@H]2c3cc4c(cc3[C@@H](c3cc(OC)c(OC)c(OC)c3)[C@H]3C(=O)OC[C@@H]32)OCO4)cc1

1.8
4.7
3.4
11.6
2.3
